Entry source: patent US7118895B2

tested on: Crude diglycosidase; test: Examination of temperature in the conversion into isoflavone aglycons by diglycosidase using soybean materials; format: biochemical, Penicillium multicolor IAM7153; conditions: 55 °C; heat treatment of enzyme: yes; 6 h
Measure: Decomposition efficiency of glycitin family in concentrated soybean protein (%)

Exam item: Field request: Decomposition efficiency of glycitin family in concentrated soybean protein | item: COc1cc2c(=O)c(-c3ccc(O)cc3)coc2cc1O[C@@H]1O[C@H](CO)[C@@H](O)[C@H](O)[C@H]1O [glycitin]
Marked response: 52.9

[a] COc1cc2c(=O)c(-c3ccc(O)cc3)coc2cc1O [glycitein]
[b] COc1cc2c(=O)c(-c3ccc(O)cc3)coc2cc1O[C@@H]1O[C@H](COC(=O)CC(=O)O)[C@@H](O)[C@H](O)[C@H]1O [malonylglycitin, 6″-O-malonylglycitin]
[c] COc1cc2c(=O)c(-c3ccc(O)cc3)coc2cc1O[C@@H]1O[C@H](COC(C)=O)[C@@H](O)[C@H](O)[C@H]1O [acetylglycitin, 6″-O-acetylglycitin]
Exam item: Sort (3 molecules) by Decomposition efficiency of glycitin family in concentrated soybean protein: min first. Would you mind listing the labels in the order requested?
Marked response: b, a, c
(b: 0.4%, a: 11.3%, c: 35.3%)
